Listed binders paired with reported IC50
Molecular target: T1, rat NPY Y5 receptor, clone Y217.24.13.6B (rat)
T1 chain: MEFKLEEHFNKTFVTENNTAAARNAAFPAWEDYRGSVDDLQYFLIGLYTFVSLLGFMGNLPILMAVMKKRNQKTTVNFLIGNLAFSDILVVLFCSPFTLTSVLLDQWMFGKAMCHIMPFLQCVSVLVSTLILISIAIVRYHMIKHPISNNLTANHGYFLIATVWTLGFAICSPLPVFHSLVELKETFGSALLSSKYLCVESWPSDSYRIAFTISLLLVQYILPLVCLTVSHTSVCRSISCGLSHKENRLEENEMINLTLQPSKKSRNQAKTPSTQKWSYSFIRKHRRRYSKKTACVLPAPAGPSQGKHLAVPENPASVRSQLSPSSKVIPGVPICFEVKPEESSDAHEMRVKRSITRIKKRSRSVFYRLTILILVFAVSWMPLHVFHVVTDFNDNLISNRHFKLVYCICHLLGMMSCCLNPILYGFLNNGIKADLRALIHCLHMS
Test: competition with [125I]PYY, membranes of transfected COS-7 cells; second individual value in brackets
Ends that are not written are not given here.
Express it in nM; write the number only.

>  <Binder>
ARYYSALRHYINLITRQRY (ends and bridges not checked) [p(18-36)NPY]

>  <IC50 / nM>
107

$$$$

IC50 for YYSALRHYINLITRQRY (ends and bridges not checked) [r/h(20-36)NPY] is 332
